Target: HEK293 Galpha15/GCaMP6s without NPYLR7, calcium fluorescence
Assay: nonspecific activation in parental Galpha15/GCaMP6s cells – cell-based, HEK293 lacking NPYLR7, counter-screen for mosquito NPYLR7 agonist project, dose response (AID 1259426);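 note: potency for a rise in fluorescence over baseline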
The source made the active and inactive calls.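 Rule for the calls: active = EC50 under a set limit in control cells lacking the mosquito receptor, marking a fluorescence artifact; inactive = the rest.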
Classes used: active, inactive

# Compound, Label value
measured = [
    ("CC(=O)OC(C)C[N+](C)(C)C (stereo not given)", "inactive"),
    ("O=C1/C(=C/c2cc3ccccc3o2)Oc2cc(O)ccc21", "inactive"),
    ("CC[n+]1c(/C=C/C=C2/N(C)c3ccccc3C2(C)C)sc2ccccc21", "inactive"),
    ("CN1CCc2c(sc(NC(=O)Cc3ccccc3)c2-c2nc3ccccc3s2)C1", "inactive"),
    ("COc1cc(C=C2C=c3c(O)cccc3=C2O)cc(Cl)c1O", "active"),
    ("O=[N+]([O-])c1cc(S(=O)(=O)Nc2cc(Cl)ccc2F)ccc1F", "inactive"),
    ("Nc1ccc(-c2nc3cc(N)cc(Cl)c3o2)cc1", "active"),
    ("CCCCCn1c(=O)c2c(nc3n2CCN3c2cc(C)cc(C)c2)n(C)c1=O", "inactive"),
    ("CSc1ccc(C2CC(c3ccc(Cl)cc3)=Nc3ncnn32)cc1 (stereo not given)", "inactive"),
    ("C=CCN1C(=O)C(Cc2ccc(OC)cc2)S/C1=N/N=C\\c1cccs1 (stereo not given)", "inactive"),
    ("CSCCC(C(=O)O)N1C(=O)/C(=C/c2ccc(O)cc2)SC1=S (stereo not given)", "active"),
    ("Cc1cc(O)c(CN2CCCCC2)c2c1C(=O)/C(=C/c1cc3ccccc3o1)O2", "active"),
    ("O=C1SC(Nc2ccc(Br)cc2)C(=O)N1c1ccccc1 (stereo not given)", "active"),
    ("Cc1ccc(N2C(=O)NC(=O)/C(=C\\c3cccs3)C2=O)cc1", "inactive"),
    ("O=C(O)c1csc(CSc2nnc(Cc3ccccc3)n2-c2cccc(C(F)(F)F)c2)n1", "inactive"),
]

----------
Biological target: HEK293 Galpha15/GCaMP6s without NPYLR7, calcium fluorescence
Test: nonspecific activation in parental Galpha15/GCaMP6s cells – cell-based, HEK293 lacking NPYLR7, counter-screen for mosquito NPYLR7 agonist project, dose response (AID 1259426);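 note: potency for a rise in fluorescence over baseline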
Calls of active or inactive are those of the source.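 Rule for the calls: active = EC50 under a set limit in control cells lacking the mosquito receptor, marking a fluorescence artifact; inactive = the rest.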
Classes used: active, inactive

# Molecule, Tested target, Label value
measured = [
    ("O=C1C(=Cc2ccccc2O)NC(=S)N1Cc1ccco1", "HEK293 Galpha15/GCaMP6s without NPYLR7, calcium fluorescence", "active"),
    ("CN=c1nc(-c2ccccc2)n(-c2ccccc2)s1", "HEK293 Galpha15/GCaMP6s without NPYLR7, calcium fluorescence", "inactive"),
    ("N#C/C(=C/c1ccc(N2CCCCC2)o1)c1cccc(F)c1", "HEK293 Galpha15/GCaMP6s without NPYLR7, calcium fluorescence", "inactive"),
    ("NC(=NC1C2CC3CC(C2)CC1C3)Nc1ccc(I)cc1 (configuration not stated)", "HEK293 Galpha15/GCaMP6s without NPYLR7, calcium fluorescence", "active"),
    ("CCN1CCN(C2=CC3=CC(=C(C#N)C#N)CCC3CC2)CC1 (configuration not stated)", "HEK293 Galpha15/GCaMP6s without NPYLR7, calcium fluorescence", "active"),
    ("CCOc1cc(/C=C2\\SC(=S)N(NC(=O)c3ccccc3O)C2=O)ccc1O", "HEK293 Galpha15/GCaMP6s without NPYLR7, calcium fluorescence", "inactive"),
    ("COc1cccc(CN2COc3ccc4c(c3C2)O/C(=C\\c2ccncc2)C4=O)c1", "HEK293 Galpha15/GCaMP6s without NPYLR7, calcium fluorescence", "active"),
]
